system: Plasmodium falciparum NF54-HGL (transmission to Anopheles stephensi); assay: percentage of barcode signal found in uninfected mosquitoes (transmission-blocking activity); higher = stronger blocking of transmission to mosquito, active = 80 or more; conditions: 10 µM; gametocyte preincubation time 24 h; readout time post-feed 8 days
Respond with a class label; see yes = active, no = inactive

Known results for compounds:
# compound, tgt, label
rows = [
    ("Cc1ccc2cc(C3NC(=O)c4ccccc4N3)c(Cl)nc2c1 (configuration not stated)", "Plasmodium falciparum NF54-HGL (transmission to Anopheles stephensi)", "no"),
    ("CC(C)C(C(=O)Nc1ccc(S(=O)(=O)N(C)C)cc1)c1ccc(Cl)cc1 (configuration not stated)", "Plasmodium falciparum NF54-HGL (transmission to Anopheles stephensi)", "no"),
    ("Cc1ccc(Oc2ccc(NC(=O)CNc3ccccc3N3CCCC3=O)cc2)cc1", "Plasmodium falciparum NF54-HGL (transmission to Anopheles stephensi)", "no"),
    ("Cc1cnc(CCNC(=O)c2cc(-c3ccc(Cl)cc3)cs2)[nH]1", "Plasmodium falciparum NF54-HGL (transmission to Anopheles stephensi)", "no"),
]

*Q* Check the results log: what was the call for Nc1ncnc2c1ncn2C[C@@H](O)[C@@H](O)C(=O)O ?
*A* no

*Q* Check the results log: what was the call for COc1ccc(-c2cnc3ccc(NCc4ccc(S(N)(=O)=O)cc4)nn23)cn1 ?
*A* no

*Q* Check the results log: what was the call for COc1ccc(OC(C)C(=O)Nc2ccc(Cl)cc2C)cc1 (configuration not stated) ?
*A* no

*Q* Check the results log: what was the call for CCOc1ccc2cc(-c3nn(CC4CCN(C)CC4)c4ncnc(N)c34)ccc2c1 ?
*A* no

*Q* Check the results log: what was the call for COc1ccc(C2=NN(C3CCCCCC3)C(=O)C2(C)C)cc1OCCCCOc1ccc(-c2nn[nH]n2)cc1 ?
*A* no

*Q* Check the results log: what was the call for O=C(Nc1ccnc(-c2cccnc2)n1)c1cc(C(F)(F)F)cc(C(F)(F)F)c1 ?
*A* no

*Q* Check the results log: what was the call for CC(=O)Oc1ccccc1C(=O)Nc1ncc([N+](=O)[O-])s1 ?
*A* no

*Q* Check the results log: what was the call for O=C(c1ccco1)N(CCCn1ccnc1)c1nc2c(Cl)cccc2s1 ?
*A* no

*Q* Check the results log: what was the call for Cc1ccc(NC(=O)CC2COc3ccccc3O2)cc1Cl (configuration not stated) ?
*A* no

*Q* Check the results log: what was the call for O=C(Nc1ccc(N2CCNCC2)nc1)c1oc(-c2ccccc2)nc1C(F)(F)F ?
*A* no

*Q* Check the results log: what was the call for Cc1ncc(-c2ccnc(Nc3ccc(S(C)(=O)=O)cc3)n2)n1C(C)C ?
*A* yes

*Q* Check the results log: what was the call for c1csc(-c2cnc3sc(NCC4CCOCC4)nn23)c1 ?
*A* no

*Q* Check the results log: what was the call for COC(=O)c1c(NC(=O)c2cc3ccccc3oc2=O)sc2c1CCN(Cc1ccccc1)C2 ?
*A* no

*Q* Check the results log: what was the call for O[C@@H](c1cc(C(F)(F)F)nc2c(C(F)(F)F)cccc12)[C@H]1CCCCN1 ?
*A* no

*Q* Check the results log: what was the call for COc1ccccc1C(C)NCC(=O)Nc1cc(C(F)(F)F)ccc1Cl (configuration not stated) ?
*A* no

*Q* Check the results log: what was the call for Cc1ccc2nc(Cl)c(CNCc3cccs3)cc2c1 ?
*A* no

*Q* Check the results log: what was the call for CN(C)c1cc(NC(=O)Nc2ccccc2)c2ccccc2n1 ?
*A* yes

*Q* Check the results log: what was the call for CNC(=O)C1Cc2ccccc2N1C(=O)Cc1ccc(F)cc1 (configuration not stated) ?
*A* no
